Reference source: paper PMC6983514

# maps each entry to its B (SE), Loop diuretic on analyte level
assay: Genotype-stratified analysis: loop diuretic association with endpoints by ABCG2 rs2231142 (Q141K); assay type: in vivo, human; settings: ABCG2 rs2231142 WT (n = 435), on LD n = 74; adjusted

Reference set (3 entries):
B (SE), Loop diuretic on analyte level lookup needed for CC(C)c1c(C(=O)Nc2ccccc2O)c(-c2ccccc2)c(-c2ccc(F)cc2)n1CCC1CC(O)CC(=O)O1 (stereo not shown) , thanks.
0.102 (0.040)

B (SE), Loop diuretic on analyte level lookup needed for CC(C)c1c(C(=O)Nc2ccccc2O)c(-c2ccccc2)c(-c2ccc(F)cc2)n1CC[C@@H](O)C[C@@H](O)CC(=O)O , thanks.
0.072 (0.039)

B (SE), Loop diuretic on analyte level lookup needed for CC(C)c1c(C(=O)Nc2ccccc2)c(-c2ccccc2)c(-c2ccc(F)cc2)n1CC[C@@H](O)C[C@@H](O)CC(=O)O [ATV, atorvastatin, reference compound] , thanks.
0.121 (0.044)

Then there is this compound:
B (SE), Loop diuretic on analyte level lookup needed for CC(C)c1c(C(=O)Nc2ccccc2)c(-c2ccccc2)c(-c2ccc(F)cc2)n1CCC1CC(O)CC(=O)O1 (stereo not shown) , thanks.
0.149 (0.048)
